Tgt: T1, canine OX40L, full length membrane form, expressed on HEK293 cells (canine)
T1 chain: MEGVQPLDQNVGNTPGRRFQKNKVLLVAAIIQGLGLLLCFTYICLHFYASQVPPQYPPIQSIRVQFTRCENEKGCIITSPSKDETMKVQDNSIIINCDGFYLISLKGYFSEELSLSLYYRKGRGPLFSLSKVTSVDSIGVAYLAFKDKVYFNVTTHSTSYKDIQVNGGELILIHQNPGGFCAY
Assay procedure: cell-based or functional assay
Metric: % Signal Inhibition Rep2 (%)
The reply should contain only the number, in %.

Recorded % Signal Inhibition Rep2, per entry:
{"Binder": "PMX061 (antibody, V domains shown, also called PMX61) VH: EVQLVESGGDLVKPGGSLRLSCVASGFTFSSFPMSWVRQAPGKGLQWVAYINSGGSSTSYADVVKGRFTISRDNAKNTLYLQMNSLRADDTAVYYCARTFPTVATDNWFYYWGQGTLVTVSS VL: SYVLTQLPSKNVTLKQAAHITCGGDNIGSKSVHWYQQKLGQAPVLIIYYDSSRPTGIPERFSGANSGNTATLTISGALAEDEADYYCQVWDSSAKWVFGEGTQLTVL", "Unit name": "%", "% Signal Inhibition Rep2": 61.6}
{"Binder": "PMX045 (antibody, V domains shown, also called PMX45) VH: EVQLVESGGDLVKPGGSLRLSCVASGFTFSSYHMTWVRQAPGKGLQWVAYITSGGITTSYADAVKGRFTISRDNAKNTLYLQMSSLRAEDTAMYYCARDLVLLLGGADYWGQGTLVTVSS VL: SYELTQPPSVNVTLRETAHITCGGDSIGRKYVQWIQQNPGQAPVVIIYKDSNRPTGIPERFSGANSGNTATLTISGALAEDEADYYCQVGDSGTKAVFGGGTHLTVL", "Unit name": "%", "% Signal Inhibition Rep2": 81.7}

Read the next record carefully.
Asked: Fill in: % Signal Inhibition Rep2 of PMX048 (antibody, V domains shown, also called PMX48) VH: EVQLVESGGDLVKPGGSLRLSCVASGFTFNNYEMYWVRQAPGKGLEWVARIYESGTTTYSAEADTGRFTISRDNAKNMVFLQMNSLRAEDTAVYYCASASSSTWRFDYWGQGTLVTVSS VL: SYVLTQLPSVSVTLGQTARITCGGDSIGRKNVYWFQQKLGQAPVLIIYDDRSRPSGIPERFSGANSGNTATLTISGALAEDEADYYCQVWDSSTGVFGGGTHLTVL is ___
Given back: 69.3
